MEASURED_METRIC: IC50 (nM)
Kindly provide the numeric value in nM only, without the unit symbol.

Lookup: A/Denmark/528/2009 (H1N1)pdm09 NA-H274Y (Influenza A virus, UniProt C3W5S3, H275Y) / IC50 / "CCC(CC)[C@H](NC(C)=O)[C@@H]1[C@H](O)[C@@H](C(=O)O)C[C@H]1N=C(N)N" : value?
Found: 23.5
